# Target or system: GAK (Homo sapiens, UniProt O14976)
# Sequence (O14976 12-347 limits assumed): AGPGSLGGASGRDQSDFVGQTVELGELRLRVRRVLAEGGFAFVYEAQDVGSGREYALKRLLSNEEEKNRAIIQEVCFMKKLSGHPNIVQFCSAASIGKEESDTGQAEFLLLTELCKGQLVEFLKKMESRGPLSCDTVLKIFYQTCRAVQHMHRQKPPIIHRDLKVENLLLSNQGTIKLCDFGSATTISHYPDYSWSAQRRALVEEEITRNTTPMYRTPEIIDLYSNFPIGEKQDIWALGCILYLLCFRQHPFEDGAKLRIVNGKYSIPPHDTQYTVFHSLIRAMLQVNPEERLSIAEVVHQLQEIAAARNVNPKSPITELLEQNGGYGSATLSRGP
# Procedure details: biochemical
# label = TRUE if Ki < 50 nM else FALSE

// below: answered compounds
>  <Smiles string>
Fc1ccc(Nc2ccnc3ccc(Br)cc23)cc1F

>  <Label value>
TRUE

$$$$
>  <Smiles string>
Fc1cc(Nc2ccnc3ccc(Br)cc23)cc(F)c1F

>  <Label value>
TRUE

$$$$
>  <Smiles string>
Brc1cccc(Nc2ncnc3ccc(Br)cc23)c1

>  <Label value>
FALSE

$$$$
>  <Smiles string>
Fc1ccc(Nc2ncnc3ccc(Br)cc23)cc1

>  <Label value>
FALSE

$$$$
>  <Smiles string>
Fc1cccc(Nc2ccnc3ccc(Br)cc23)c1

>  <Label value>
TRUE

$$$$

Does the reported Ki of Fc1cc(F)cc(Nc2ccnc3ccc(Br)cc23)c1 stay below 50 nM?
TRUE

Does the reported Ki of Brc1cccc(Nc2ccnc3ccc(Br)cc23)c1 stay below 50 nM?
FALSE
